test: yeast display, Sf9 membrane polyspecificity reagent, FACS + sequencing; frameworks hold sequencing errors
recordedMetric: polyreactivity (PSR sort gate)

Below: 5 sequences and their reported polyreactivity (PSR sort gate).
entrySequence	polyreactivity (PSR sort gate)
QVQLVESAGGLVQAGGSLRLSCAASGSTFPTYAMGWYRQSPGKERELVAAIDWSDGSITYYADSVKGRFTISRDNAKNTVYLQMNSMKPEDTAVYYCAKDNSQYGWGYDYWGQGTQVTVSS	low polyreactivity
QVQLVESGGGLVQAGGSLRLSCAASGTIFLWYAMGWYIQAPGKERELVASITRGGNTYYADSVKGRFTISRDNAKNTVYLQMISLKPEDTAVYYCAAVSRFWRVPYTYDYWGQGTHVTVSS	low polyreactivity
QVQLVESGGGLVQAGGSLRLSCAASGRIFRRYAMGWYRQAPGKERELVAAISSGGSTNYADSVKGRFTLSRDNAKNTVYLQMNSLKPEDTAVYYCAARRTATTSRAYYYWGQGNQVTVSS	high polyreactivity
QVQLVESGGGLVQAGGSLRLSCAASGSTFDHYTMGWYRQAPGKERELVAAINRIGDSTYYADSVKGRCTISRDNAKNTVYLQMTSLKPEDTAVYYCNTVSLSLRFDYWGQGTQVTVSS	high polyreactivity
QVQLVESGGGLVQAGGSLRLSCAASGRTFHRYAMGWYRQAPGKERELVAAITSSGGSPNYADSVKGRFTISRDNAKNTVYLQMNSLKPEDTAVYYCATDRYRYTSHPWSRGFDYWGQGTQVTVSS	low polyreactivity

Query: polyreactivity (PSR sort gate); subject: "QVQLVETGGGLVQAGVSLRLSCAASGRTWGYDMGWYRQAPGKERELVAAIRNGASTYYADSVKGRFTISRDNAKNTVYLQMNSLKPEDTAVYYCAADYTVRVVATYDYWGQGTQVTVSS"
low polyreactivity

Query: polyreactivity (PSR sort gate); subject: "QVQLVESGGGLVQAGGSLRLSCAASGRTLVSYAMGWYRQAPGKERELVATISWSGGSTYYADSVKGRFTISRDNAKNTVYLQMYSLKPEDTAVYYCNRSLTGYDELGYPVPYTYDYWGQATQVTVSS"
low polyreactivity

###

experiment: yeast display, Sf9 membrane polyspecificity reagent, FACS + sequencing; frameworks hold sequencing errors

entrySequence	polyreactivity (PSR sort gate)
QVQLEESVGGLVQAGGSLRLSCAASGRIFVRNAMGWYRQAPGKERELVATITSIGGRTYYADSVKGRFTISRDNAKNTVYLQMNSLKPEDTAVYYCAAYNTQSYPAYLRYDYWGQGTQVTVSS	low polyreactivity
QVQLVESGGGLVQAGGSLRLCCAATGSIFPGNAMGWYRQAPGKEMELVATNTWSGGSTYYADSVKGRFTISRDNAKNTVYFQMKSLKPVDTAVYYCKADSSWFYQWKDYGMYDYWGQGTQVTVSS	low polyreactivity
QVQLVESGGGLVQAGGSLRLSCAASGFTFHPNSMGWYRQAPGKERELVASISSRGGSTYYADSVKGRFTISRDNAKNTVYLQMNSQKPEYTAVYYCNVRGTQYYGHIGFYYWGQGTQVTVSS	low polyreactivity

###

experiment: yeast display, Sf9 membrane polyspecificity reagent, FACS + sequencing; frameworks hold sequencing errors

entrySequence	polyreactivity (PSR sort gate)
QVQLVESGGGLVLAGGSLRLSSAASGSIFYRNAMGWYRQSPGKERQLVATITVNGGRTYYADSVKGRFTISRDIAKNTVYLQMNSLKPEDTAVYYCAKDVHRWYPYDYCGQGTQVTVSS	low polyreactivity
QVQLVESGGGLVQAGGSLRLSCAASGRIFIYYAMGWYRQAPGKERELVAAISWGGGRTYYADSVKGRFTITRDNAKNTVYLQINSLKPEDTAVYYCAAGVYTGQHEYDYWGQGTQVTVSS	low polyreactivity
QVQLVESGGGLVQAGGSLRLSCAASGFTFYTYTMGWYRQAPGKERELVAVISRSGGSTYYADSVKGRFTISRDNAKNTVYLQMNSLKPEDTAVYYCNKVGIYGSRSRYDSWGQGTQVTVSS	high polyreactivity
QVQLVESGGGLVQAGGSLRLSCAASGSIFSAYAMGWYRQAPGKERELVAAISSRGGSTYYADSVKGRFTISRDNAKNTVYLQMNSLKPEDTAVDYCAARVRHSAYDYWGQGTQVTVSS	high polyreactivity

###

assay: yeast display, Sf9 membrane polyspecificity reagent, FACS + sequencing; frameworks hold sequencing errors
recordedMetric: polyreactivity (PSR sort gate)

Below: 5 sequences and their reported polyreactivity (PSR sort gate).
entrySequence	polyreactivity (PSR sort gate)
QVQLVESGGGVVQAGGSLRVSCAASGRIFAPYAMGWYRQAPGKERELVAAISWRGSSTYYADSVKGRFTISRDNAKNTVSLQMNSLKPEDTAVYYCAAPSSKYWGQGTQVTVSS	low polyreactivity
QVQLVESGGGLVQAGGSLRLSCAASGFTFSWNVMGWYRQAPGKERELVAAISTSYGGTYYADSVKGRFTISRDNAKNTVYLQMNSLKPEDTAVYYCATLYYPNTSYEYYYWGQGTQVTVSS	low polyreactivity
QVHLLESGGGLLQAGGSLRLNSDASGSTFITYCIGWFRQAPGKERELVARITLSGGSTYYADSVKGRFTSSRDNAKNTVYLQMNRLKPEDTAVYYCATDFGWQYYVLDGYYWGQGTQVTVSS	low polyreactivity
QVQLVESGGGLVQAGGCLRLSCAASGRISSSYAMGWYRLAAGKERELVAAITSRGGSTYYADSVKGRFTISRDNAKNTVYLQMNSLKPEDTAVYYCNAPGYLTYDHSYDYWGQGTQVTVSS	low polyreactivity
QVQLVESGGGLVQAGGSLRLSCAASGFIFRYNAMGWYRQAPGKERELVAAISWNGGRTYYADSVKGRFTISRDNAKNTVYLQMNSLKPEDTAVYYCAAELSSYFFSAGYDYWGQGTQVTVSS	high polyreactivity

Query: polyreactivity (PSR sort gate); subject: "QVQLVESGGGLVQAGGSLRLSCAASGFTFGPNTMGWYRQAPGKERELVAAISARGGRTYYADSVKGRFTISRDTAKNTVYLQMNSLKPEDTAVYYCAAPGYVRTGVTYGGYYWGQGTQVTVSS"
high polyreactivity

Query: polyreactivity (PSR sort gate); subject: "QVQLVESGGGLVQAGGSLRLSCPASGNIFGNNAMGWYRQAPGKERELVAAIDGSGGSTYYADSVKGRFTISRDKAKNTVYLQMNSLKPEDTAVYYCAKTAVIWRTWRTVPSPGYHFGYWGQGTQVTVSS"
low polyreactivity

Query: polyreactivity (PSR sort gate); subject: "QVQIVESGGGLVQAGGSLRLSCAASGIIFPVYVMGWYRQAPGKERELVAAISKRGGSTYYADSVKGRFTISRDNAKNTVYLQMNSLKPEDTAVYYCAADRSRHSFYWEYDYWGQGTQVTVSS"
high polyreactivity

Query: polyreactivity (PSR sort gate); subject: "QVPLVESGGGLVQAGGSLRLSCAAYGFTFWTYAMGWYRQAPGKDRELVAAISRSAGRTYYADSVKGRFTISRDNAKNTVYLQMNSLKPEVSAVYYCNARAGYERYGYWGQGSQVTVSS"
high polyreactivity

Query: polyreactivity (PSR sort gate); subject: "QVQLVESGGRLVQAGGSLRLTLAASGNTRGSYAMGWYRQAPGKEREFVATISKRGGSTYYADSVKGRFTISRDNAKNTVYLQMNSLKPEDTAVYYCNKDPYSIYRPGSGQGYAFNYWGQGTQVTVSS"
high polyreactivity

###

assay: yeast display, Sf9 membrane polyspecificity reagent, FACS + sequencing; frameworks hold sequencing errors

entrySequence	polyreactivity (PSR sort gate)
QVQLVESGGGLVQAGGSLRLSCAASGGTFTHYGMGWYRQAPGKERELVAAITWTASSTYYADSVKGRFTISRDNAKNTVYLQMNSLKPEDTAVYYCATSYYYWGHTYDYWGQGTQVTVSS	low polyreactivity
QVQLVESGGGLVQAGGSLRLSCAASGFTFRANGMGWYRQAPGKERELVATITSGGTTNYADSVKGRFTISRDNAKITVYLQMNSLKPEDTAVYYCAKAFRHSTFFAPYDYWRQGTQVTVSS	low polyreactivity

###

assay: yeast display, Sf9 membrane polyspecificity reagent, FACS + sequencing; frameworks hold sequencing errors
recordedMetric: polyreactivity (PSR sort gate)

entrySequence	recordedMetric	experimentalValue
QVQLVESGGGLFQAGGSLRLSCADYGSTFRTYVMGWYRQAPGKESEFVAAITNGISTNYADSVKGRFTISRDNAKYTFYLQMNSLKPEDTAVYYCAARVRRGSTQAQYYYWGQGTQVTVSS	polyreactivity (PSR sort gate)	high polyreactivity
QVQLQESGGGLVQAGGSLRLSCAASGYISQSSVMGWYRQAPGKEREFVASISYGATTYYADSVKGRYTISRDNAKDTVYLQTNSPKPEVTAVYYCAVCVKRGFSHRYWGQGTQVTVSS	polyreactivity (PSR sort gate)	high polyreactivity

###

experiment: yeast display, Sf9 membrane polyspecificity reagent, FACS + sequencing; frameworks hold sequencing errors
recordedMetric: polyreactivity (PSR sort gate)

entrySequence	polyreactivity (PSR sort gate)
QVQLVESGGGLVQAGGSLRLSCAASGYIFYTYAMGWYRQAPGKERELVASIDSGGSTNYADSVKGRFTISRDNAKNTVYLQMNSLKPEDTAVYYCAADVIVRVYYYYYVLMDYWGHGTQVTVSS	low polyreactivity
QVHLVESGGGLVQAGGSLRLSSPASGRIFQDNAMGWYRQAPGKERELVAAISSSGGSTYYADSVKGRFTISRDNAKNTVYLHMNSLKPEDTAVYYCAADYYWYWDLYDYWGQGTQVSVSS	high polyreactivity
QVQLVESGGGLVQAGGSLRLSCAASGLTFFGNAMGWYRQAPGKERELVATISSGGGTSYADSVKGRFTISRDNAKNTVYLQMNSLKPEDTAVYFCAAEIVEEFDYWGQGTQVTVSS	low polyreactivity
QVQLQESGGGLVQAGGSLRLPCAASGNISDAGYMGWYRQAPGKQREFVAAIAAGSNTNYADSVKGSFTISRDNAKNTVYLQMNSLKPEDTAVIFFAVASYARVQYEYWGQGTQVTVNS	low polyreactivity

Query: polyreactivity (PSR sort gate); subject: "QVQLVESGGGLVQAGGSLRFSCAASGRIFRYYAMGWYRQAPGKERELVAGIRTSGGRTYADSVKGRFTISRDNAKNTVYLQMNSLKPEDTAVYYCAAGRRTLSMYYWGQGTQVTVSS"
high polyreactivity

Query: polyreactivity (PSR sort gate); subject: "QVQLVESGGGLVQAGGSLRLSCAASGSTFTTYAMGWYRQATGKERELVASITWRGGSTYADSVKGRFTISRDNAKNTVYLEMNSLKPEDTAVYYCAAATRASAQFPRQRYYYWGQGTQVTVSS"
high polyreactivity

Origin of measurements: the nanobody polyreactivity screen of Harvey et al. (2022)
